Measured self-splicing fitness (ln) by item
test_name: self-splicing fitness, log relative to wild type (ln ratio); higher = more splicing; Tetrahymena group I intron in knt gene, E. coli kanamycin selection, DiMSum; sequences stand for … in CUCUCU…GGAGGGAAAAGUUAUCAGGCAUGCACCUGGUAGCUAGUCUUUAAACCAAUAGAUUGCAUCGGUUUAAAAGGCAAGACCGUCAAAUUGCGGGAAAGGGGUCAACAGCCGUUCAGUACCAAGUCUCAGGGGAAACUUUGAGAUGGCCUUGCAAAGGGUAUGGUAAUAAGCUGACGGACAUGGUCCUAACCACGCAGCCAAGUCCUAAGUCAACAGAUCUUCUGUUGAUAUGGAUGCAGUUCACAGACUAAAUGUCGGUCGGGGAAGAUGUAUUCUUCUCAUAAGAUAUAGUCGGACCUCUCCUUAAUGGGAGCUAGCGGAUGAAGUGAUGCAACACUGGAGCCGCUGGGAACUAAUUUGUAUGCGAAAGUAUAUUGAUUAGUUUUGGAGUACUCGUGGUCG;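 also: selection with 25 µg/mL kanamycin versus none on LB agar overnight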
condition_info: 30 °C

Some solved entries appear below for comparison.
[[record]]
polymer_sequence = "AACUAGCAAUAUUACGGAUU"
measured_result = -1.16

[[record]]
polymer_sequence = "AGGUAGCAAUAUUACGCCAU"
measured_result = -1.89

[[record]]
polymer_sequence = "CUCAAGCAAUAUUACGCAGU"
measured_result = -3.28

[[record]]
polymer_sequence = "AGCAAGCAAUAUUACGAGUU"
measured_result = -2.98

[[record]]
polymer_sequence = "CAGCAGCAAUAUUACGUGCG"
measured_result = -1


Form field: reported self-splicing fitness (ln) of AGUUAGCAAUAUUACGACUU
-1.32

Form field: reported self-splicing fitness (ln) of UUUUAGCAAUAUUACGCAAU
-2.98

Form field: reported self-splicing fitness (ln) of CGUCAGCAAUAUUACGAUCC
-1.62
